- Tested on: guinea pig Dopamine Transporter (DAT), gene 100714898
- TEST_PROTOCOL: NVS_TR_gDAT: NovaScreen (NVS) Transporter Assay for guinea pig Dopamine Transporter (DAT) (AID 2283369);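 also: active compounds lower bound radioligand signal relative to DMSO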
Records with an inconclusive call do not appear. Active and inactive are the calls of the source. The calls were made as follows: active = hit-call score of the fitted dose curve at least 0.9, where 1 is the maximum; inconclusive = response in the unintended direction; inactive = score below 0.9.
API: response.call in active, inactive

[ask] State the result this test recorded for `OC(c1ccc(Cl)cc1)(c1ccc(Cl)cc1)C(Cl)(Cl)Cl` .
[reply] inactive

[ask] Assay result, entry CC1(C)C(C=C(Cl)Cl)C1C(=O)OC(C#N)c1cccc(Oc2ccccc2)c1 (configuration not stated) — outcome?
[reply] active

[ask] Assay result, entry CC1(C)C(C(=O)OC(C#N)c2cccc(Oc3ccccc3)c2)C1(C)C (configuration not stated) — outcome?
[reply] active

[ask] Recorded call for CCOc1cc(C(C)(C)C)ccc1C1COC(c2c(F)cccc2F)=N1 (configuration not stated) ?
[reply] inactive
